# System: IGROV1 ovarian
# Assay remarks: NCI-60 one-dose screen, 48 h (100 = growth as untreated, 0 = no growth, -100 = all killed)
# Measurement parameters: 10 µM unless noted
Compounds without any hit were thinned out: in the full panel of roughly 83,000, 20% have a hit.
Attribute: growth
Response body: numeric value in %, unit text excluded.

Look up growth for this compound: "CC(C)[O-].CC(C)[O-].CN(CCN(C)Cc1cc(F)cc(F)c1[O-])Cc1cc(F)cc(F)c1[O-].[Ti+4]"
-42.2

Look up growth for this compound: "Cc1cccc(Cl)c1NC(=O)c1ccc2nc(NC(=O)NC3CC(C)(C)NC(C)(C)C3)sc2c1"
65.2

Look up growth for this compound: "Clc1ccccc1[C@@H]1C[C@@H]2Cc3cc(Br)c4ccccc4c3N1O2"
48.7

Look up growth for this compound: "Cn1cnc([N+](=O)[O-])c1S(=O)(=O)Oc1ccc(Cl)cc1"
69.8

Look up growth for this compound: "CCCCSc1cc(C)nc(N)n1"
100

Look up growth for this compound: O=C(/C=C/c1cccnc1)NCCCCC1CCCN(C(=O)c2ccccc2)C1 (stereo unspecified)
33.8

Okay, now this compound:
Look up growth for this compound: "COc1cc(Oc2cc(-c3cccnc3)ccc2NC(=O)Nc2ccc(F)cc2F)cc(OC)c1OC"
116
